Test system: CRL-7250
Assay: Cytotoxic Profiling of Annotated Libraries Using Quantitative High-Throughput Screening (AID 1296008); note: % is set by controls: 0 for no effect and ±100 for the full control effect; nearly all actives have a fitted effect of over 60% in size
Conditions: Five cell lines viability, CellTiter-Glo ATP luminescence, 48-72 h; hits give low values
Results filed as inconclusive are left out.
ENDPOINT: max response (%)
// return numeric value only (unit: %, not printed)

Please review the entries below; each comes with its answer.
INPUT: If you can, please state the reported max response value of CC(Cc1ccccc1)NCc1ccccc1Cl (centres undefined) .
OUTPUT: -20.3

INPUT: If you can, please state the reported max response value of Clc1ccc(CO/N=C(\Cn2ccnc2)c2ccc(Cl)cc2Cl)c(Cl)c1 .
OUTPUT: -2.86

INPUT: If you can, please state the reported max response value of Sc1ccccc1Cl .
OUTPUT: 1.34

INPUT: If you can, please state the reported max response value of CN1CCc2cc(Cl)c(O)cc2[C@H]2c3ccccc3CC[C@@H]21 .
OUTPUT: -3.76

New cases:
INPUT: If you can, please state the reported max response value of Nc1ccc(Cl)cc1C(=O)c1ccccc1F .
OUTPUT: -4.36

INPUT: If you can, please state the reported max response value of CCN(CC)CCOC(=O)C(C)(c1ccccc1)c1ccccc1 .
OUTPUT: -0.0825

* * *

// max response lookup, one value per entry
System: HaCat
Experiment: Cytotoxic Profiling of Annotated Libraries Using Quantitative High-Throughput Screening (AID 1296008); note: % is set by controls: 0 for no effect and ±100 for the full control effect; nearly all actives have a fitted effect of over 60% in size
Conditions: Five cell lines viability, CellTiter-Glo ATP luminescence, 48-72 h; hits give low values
Inconclusive results are not listed.
// return numeric value only (unit: %, not printed)

INPUT: API: value(readout= max response, system= HaCat, query= COC(=O)C1=CCCN(C)C1 )
OUTPUT: -4.46

INPUT: API: value(readout= max response, system= HaCat, query= O=C(CBr)Nc1ccc(Cl)cc1C(=O)c1ccccc1F )
OUTPUT: 3.69

INPUT: API: value(readout= max response, system= HaCat, query= CCCC(C)C1(CC)C(=O)N=C(S)NC1=O (centres undefined) )
OUTPUT: -26.2

INPUT: API: value(readout= max response, system= HaCat, query= CCOC(=O)c1ncn2c1CN(C)C(=O)c1c(I)cccc1-2 )
OUTPUT: -1.53

# context switch: different compound, same max response
INPUT: API: value(readout= max response, system= HaCat, query= CCC1(c2ccccc2)CCC(=O)NC1=O (centres undefined) )
OUTPUT: -1.76

* * *

Conditions: Ebola virus entry assay, ratio channel
Calls of active or inactive are those of the source. No rule for the calls is given here.
Give one outcome, nothing more. List: t for active, f for inactive

INPUT: // outcome(item) with item = c1ccc(-c2ccc(C(c3ccccc3)n3ccnc3)cc2)cc1 (stereo unspecified)
OUTPUT: t

INPUT: // outcome(item) with item = O=C1Cc2cc(Cl)ccc2N1
OUTPUT: f

INPUT: // outcome(item) with item = CC(N)C(=O)OC(C)(C)Cc1ccc(Cl)cc1 (stereo unspecified)
OUTPUT: t

INPUT: // outcome(item) with item = C#C[C@]1(OC(C)=O)CC[C@H]2[C@@H]3CCC4=C[C@@H](OC(C)=O)CC[C@@H]4[C@H]3CC[C@@]21C
OUTPUT: f

INPUT: // outcome(item) with item = CN1[C@@H]2CC[C@H]1CC(NC(=O)n1c(=O)[nH]c3ccccc31)C2 (stereo partly specified)
OUTPUT: f

INPUT: // outcome(item) with item = c1ccc(OCc2ccc(CCCN3CCOCC3)cc2)cc1
OUTPUT: t
